MEASURED_ON: xanthine oxidase (Bos taurus, UniProt P80457)
Sequence (P80457 2-1332): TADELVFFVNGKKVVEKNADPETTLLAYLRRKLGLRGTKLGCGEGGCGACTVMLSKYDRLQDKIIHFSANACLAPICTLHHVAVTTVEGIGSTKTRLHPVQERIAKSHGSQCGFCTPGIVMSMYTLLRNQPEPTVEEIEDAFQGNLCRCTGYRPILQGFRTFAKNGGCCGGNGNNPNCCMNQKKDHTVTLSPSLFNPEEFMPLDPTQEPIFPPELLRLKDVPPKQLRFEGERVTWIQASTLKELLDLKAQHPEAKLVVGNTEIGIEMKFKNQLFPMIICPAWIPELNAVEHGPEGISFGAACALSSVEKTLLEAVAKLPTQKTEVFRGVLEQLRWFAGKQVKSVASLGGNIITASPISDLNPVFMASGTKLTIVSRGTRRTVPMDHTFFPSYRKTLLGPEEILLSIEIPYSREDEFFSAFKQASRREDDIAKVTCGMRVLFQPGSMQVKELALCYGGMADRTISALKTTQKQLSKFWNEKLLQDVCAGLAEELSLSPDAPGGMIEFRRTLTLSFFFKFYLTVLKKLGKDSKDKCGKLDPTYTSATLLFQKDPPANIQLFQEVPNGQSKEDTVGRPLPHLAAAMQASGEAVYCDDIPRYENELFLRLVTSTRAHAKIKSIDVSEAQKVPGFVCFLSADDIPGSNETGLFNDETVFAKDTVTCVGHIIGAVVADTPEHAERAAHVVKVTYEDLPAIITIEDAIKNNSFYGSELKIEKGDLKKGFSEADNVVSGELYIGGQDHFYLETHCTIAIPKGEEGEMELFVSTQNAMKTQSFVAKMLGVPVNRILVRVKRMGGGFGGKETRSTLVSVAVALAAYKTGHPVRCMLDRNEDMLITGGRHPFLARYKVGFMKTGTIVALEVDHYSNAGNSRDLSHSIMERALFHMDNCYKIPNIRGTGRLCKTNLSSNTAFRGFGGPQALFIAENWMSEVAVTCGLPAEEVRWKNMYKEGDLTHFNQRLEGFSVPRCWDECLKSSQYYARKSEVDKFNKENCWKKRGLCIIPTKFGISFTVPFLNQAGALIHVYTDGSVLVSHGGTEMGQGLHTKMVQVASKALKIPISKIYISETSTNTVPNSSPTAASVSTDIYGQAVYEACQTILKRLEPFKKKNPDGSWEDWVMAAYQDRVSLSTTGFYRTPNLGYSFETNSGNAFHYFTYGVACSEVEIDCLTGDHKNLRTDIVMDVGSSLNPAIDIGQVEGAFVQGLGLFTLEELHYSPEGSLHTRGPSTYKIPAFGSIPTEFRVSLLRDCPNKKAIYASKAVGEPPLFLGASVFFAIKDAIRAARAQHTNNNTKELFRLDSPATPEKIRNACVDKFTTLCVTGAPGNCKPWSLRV
PROTOCOL_SUMMARY: Fluorescence-quenching binding to xanthine oxidase
PROTOCOL_CONDITIONS: double-logarithm formula, 25 °C
READOUT_LABEL: Affinity n (number of binding sites per enzyme molecule)

# SMILES_CODE, OBSERVED
rows = [
    ("O=c1cc(-c2ccccc2)oc2cc(O)cc(O)c12", 0.6025),
]

(1) O=C1C[C@@H](c2ccc(O)cc2)Oc2cc(O)cc(O)c21
(2) COc1ccc(-c2coc3cc(O)ccc3c2=O)cc1
input: Hi there! Just curious which has the higher Affinity n (number of binding sites per enzyme molecule) between 1 and 2 . Indicate which entry you chose by stating its label.
output: 1

====

MEASURED_ON: xanthine oxidase (Bos taurus, UniProt P80457)
PROTOCOL_SUMMARY: Fluorescence-quenching binding to xanthine oxidase
PROTOCOL_CONDITIONS: xanthine oxidase 1.0 μmol L^−1 in PBS, 25 °C, λex 280 nm, emission 335 nm
READOUT_LABEL: Affinity K sv (dynamic quenching constant)

In the examples that follow, each entry is paired with its recorded Affinity K sv (dynamic quenching constant).
# MOLECULE, OBSERVED
data = [
    ("O=c1c(-c2ccc(O)cc2)coc2cc(O)cc(O)c12 [Genistein]", "0.0537 10^6"),
    ("C[C@@H]1O[C@@H](O[C@H]2[C@H](Oc3cc(O)c4c(c3)O[C@H](c3ccc(O)cc3)CC4=O)O[C@H](CO)[C@@H](O)[C@@H]2O)[C@H](O)[C@H](O)[C@H]1O [Naringin]", "0.0846 10^6"),
    ("O=c1cc(-c2ccccc2)oc2cc(O)c(O)c(O)c12 [Baicalein]", "0.1981 10^6"),
    ("COc1c(O)cc2oc(-c3ccc(O)cc3)cc(=O)c2c1O [Hispidulin]", "0.0989 10^6"),
    ("COc1ccc(-c2coc3cc(O)ccc3c2=O)cc1 [Formononetin]", "0.0147 10^6"),
    ("O=c1c(O)c(-c2ccc(O)c(O)c2)oc2cc(O)cc(O)c12 [Quercetin]", "0.0477 10^6"),
]

input: What value of Affinity K sv (dynamic quenching constant) has been recorded for this entry: O=C1C[C@@H](c2ccc(O)cc2)Oc2cc(O)cc(O)c21 [Naringenin]
output: 0.0568 10^6

input: What value of Affinity K sv (dynamic quenching constant) has been recorded for this entry: O=c1c(O)c(-c2ccccc2)oc2cc(O)cc(O)c12 [Galangin]
output: 0.0276 10^6

input: What value of Affinity K sv (dynamic quenching constant) has been recorded for this entry: COc1ccc(-c2cc(=O)c3c(OC)c(OC)c(OC)c(OC)c3o2)cc1 [Tangeretin]
output: 0.1498 10^6

====

MEASURED_ON: UniProt P80457
PROTOCOL_SUMMARY: Fluorescence-quenching binding to xanthine oxidase
PROTOCOL_CONDITIONS: double-logarithm formula, 25 °C
READOUT_LABEL: Affinity n (number of binding sites per enzyme molecule)

# SMILES_CODE, OBSERVED
rows = [
    ("O=c1c(-c2ccc(O)cc2)coc2cc(O)cc(O)c12", 1.3911),
    ("O=c1c(-c2ccc(O)cc2)coc2cc(O)ccc12", 1.2554),
    ("O=c1cc(-c2ccc(O)c(O)c2)oc2cc(O)cc(O)c12", 1.3087),
    ("O=c1c(O)c(-c2ccc(O)c(O)c2)oc2cc(O)cc(O)c12", 1.0614),
    ("O=c1c(O)c(-c2ccc(O)cc2)oc2cc(O)cc(O)c12", 1.0535),
    ("COc1c(O)cc2oc(-c3ccc(O)cc3)cc(=O)c2c1O", 1.2571),
    ("O=c1c(O)c(-c2cc(O)c(O)c(O)c2)oc2cc(O)cc(O)c12", 1.0764),
    ("O=c1c(O)c(-c2ccc(O)c(O)c2)oc2cc(O)ccc12", 1.3663),
    ("C[C@@H]1O[C@@H](OC[C@H]2O[C@@H](Oc3c(-c4ccc(O)c(O)c4)oc4cc(O)cc(O)c4c3=O)[C@H](O)[C@@H](O)[C@@H]2O)[C@H](O)[C@H](O)[C@H]1O", 1.2904),
]
